Please respond with reported IC50 for every item in the list.
Tested on: 898857-211-R-J1-PDC complex spheroids, growth % test/control;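 also: spheroids exposed to compound for seven days before readout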
Run description: Anticancer human tumor 898857-211-R-J1-PDC patient-derived melanoma cell line growth inhibition [RAS]
Measurement setup: curve of first compound; second compound 3.16 µM
Numbers only, in µM.

Compound	Endpoint	Observed result
C[C@@H](NC(=O)c1ncnc(N)c1Cl)c1ncc(C(=O)Nc2cc(C(F)(F)F)c(Cl)cn2)s1 + C#Cc1c(F)ccc2cc(O)cc(-c3ncc4c(N5CC6CCC(C5)N6)nc(OCC56CCCN5CC(F)C6)nc4c3F)c12	IC50	5.02

Next compound, IC50 to be filled in.
Tested on 898857-211-R-J1-PDC complex spheroids, growth % test/control: CC1(O)CCCC1n1c(=O)c(C(F)F)cc2cnc(NC3CCN(S(C)(=O)=O)CC3)nc21 (stereo not drawn) + C#Cc1c(F)ccc2cc(O)cc(-c3ncc4c(N5CC6CCC(C5)N6)nc(OCC56CCCN5CC(F)C6)nc4c3F)c12 . Observed IC50: 0.321
